- Test system: MS2 coat protein
- protocol text: apparent KD of MS2 coat protein; designed switch direction (-1 OFF switch, 1 ON switch): -1; higher = weaker reporter binding
- conditions: Eterna round: R95; input ligand: microRNA oligo, concentration not stated
The label depends only on apparent KD of MS2 coat protein: satisfied if it is at least 60 nM, not satisfied if it is smaller.

Example entries begin here.
sequence text | class name
UUUAAUUUUUUUUUUUUACAAGCUUUUUGCUCGUCUUAUACAUGAGGAUCACCCAUGUGGGUGGAGGGUAAAUUAUC [JMF 89] (puzzle: Sensor v3, turn-off variant 2) | satisfied
GAGGAACAUGAGGAUCACCCAUGUAAGGAUAUGCAAAGAGAGGUAGUAGAAGGAGAAGGCAGAAGGUACAAGGA [JR_Exclu1_Sub074] (puzzle: Exclusion 1) | not satisfied
AGAUCACAUGAGGAUCACCCAUGUCAGGAUAUGAUACUAUGUACUUCGGUACAUAGUAUCAGAAGGGACUUAAA [Ex1-3: 70] (puzzle: Exclusion 1) | satisfied
UUUAAUUUUUUUUUUUUACAAGCUUUUUGCUCGUCUUAUACAUGAGGAUCACCCAUGUGGGUGGAAAAUAAAUUAUC [JMF 92] (puzzle: Sensor v3, turn-off variant 2) | not satisfied
CUGAGGUAGCGGUCCUAUGACAUGAGGAUCACCCAUGUACCUUGCUUCGAGCUUAUUGCUCGUCUUAUGAUUCUCGG [Mat - Sensor v3 - turn-off var 1 - JL Mod - D33] (puzzle: Sensor v3, turn-off variant 1) | satisfied

[ask] Exam item: decide whether the reported apparent KD of MS2 coat protein for GUUAAGGUAGGAUAUACGAUAAUAUAGGGUAGAUAUAUAACACAUGAGGAUCACCCAUGUAGAAGGACCAAGUG [Mat - Exclusion 2 - Mod of my Tesla design - D60] (puzzle: Exclusion 2) is at least 60 nM.
[reply] not satisfied

[ask] hey, is apparent KD of MS2 coat protein for this one >= 60 nM? GUGUACGGAGGAUAUAUGUGGUGAGCAUACGCUCAAGCUUCACAUGAGGAUCACCCAUGUAGAAGGCUGUGCAC [JL-ex2-2.13 Brourd mod] (puzzle: Exclusion 2)
[reply] satisfied

[ask] Check if apparent KD of MS2 coat protein >= 60 nM (inclusive). Item: CAUACACAUGAGGAUCACCCAUGUGAGGAUAUGCGUACGUUGUCCGUAGGCGACGUGCGCAGAAGGCGCAUGAG [JL-ex1-3.13 Eli mod] (puzzle: Exclusion 1)
[reply] satisfied

[ask] I'd appreciate it if you could say whether AUAUAACAUGAGGAUCACCCAUGUGAGGAUAUGCGAUAUAUAAUAAUAAUAAUAAUAAGCAGAAGGCACAAAAU [My FIrst Design] (puzzle: Exclusion 1) has apparent KD of MS2 coat protein at least equal to 60 nM.
[reply] satisfied

[ask] Reported apparent KD of MS2 coat protein at or above 60 nM? CUUUUGUGAGGAUAUCAGUAGUAUAAAAUAAAAUAUACUACUGAGAAGGCACAUGAGGAUCACCCAUGUUCCUC [Mat - Exclusion 4 - Mod of Salish - D71] (puzzle: Exclusion 4)
[reply] not satisfied
